Experiment: A549 lung cancer cell viability effects, profiling panel, resazurin fluorescence, 24 h, PK04 Diversity Set (AID 1171); also: test concentration not given here
Settings: higher = more signal, called active from +8 up or from −8 down
Calls of active or inactive are those of the source.
Listing of recorded z-score by entry.
value.type: z-score

compound	experimental.result
COc1cc(NN2C(C(O)c3ccc(I)cc3)C=CC3C(=O)N(c4ccccc4)C(=O)C32)cc(OC)c1OC (centres undefined)	-0.749 (inactive)
O=C1O[C@H](c2ccccc2)[C@H](c2ccccc2)N2[C@H]1[C@@H](C(=O)N1CCCCCCC1)[C@]1(C(=O)Nc3ccc(C#CC4(O)CCCCCC4)cc31)[C@H]2c1ccc(O)cc1	0.0109 (inactive)
CS(=O)(=O)CCOC(=O)C1=CC(CCCO)=CC(C2CC2)N(Cc2cccc(OC(F)(F)F)c2)C=C1C(=O)OCCS(C)(=O)=O (centres undefined)	0.538 (inactive)
CCOC(=O)C[C@H]1[C@H](OC(=O)c2cc3ccccc3oc2=O)[C@@H](NC(=O)c2ccc3ccccc3c2)c2cc(OCCCO)ccc2N1C(=O)Cc1ccc(OC)cc1	0.379 (inactive)

###

Tested on: PRMT1 (protein arginine N-methyltransferase 1)
Assay: PRMT1 binders on small-molecule microarrays, primary screen, biochemical, small-molecule microarray, 635 nm fluorescence (AID 1088);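 also: binding of Prmt1 protein to compounds spotted on small-molecule microarray slides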
Details: small-molecule microarray binding, higher = more signal
Each record gets a class by composite z-score: b0: < 0.6; b1: ≥ 0.6 and < 1; b2: ≥ 1

>>> df
                                    compound  assigned_category
 0  CCOC(=O)C1=C[C@@H](C(C)(C)C)N(S(=O)(=O)c2ccc(C)cc2)[C@H]1c1ccccc1                 b2
 1  O=C1C2C=CC(C(O)c3ccco3)N(Nc3ccccc3)C2C(=O)N1c1ccccc1 (stereo not given)                 b0
 2  CN1C=C(C(=O)OCCS(C)(=O)=O)C(C(=O)OCCS(C)(=O)=O)=CC(c2ccc(CO)cc2)=CC1c1cccs1 (stereo not given)                 b0
 3    CC(C)C(=C=CC[C@H](O)c1cccc(OCCO)c1)CCO                 b1
 4  CC(CO)N1C(=O)[C@@H]2[C@H]3C(=O)OCC=C[C@H]3OC23C=CCN(c2ccc(Cl)cc2)C(=O)[C@@H]13 (stereo not given in full)                 b0
 5  C=CCNC(=O)[C@H]1[C@@H]2C(=O)O[C@@H](c3ccccc3)[C@@H](c3ccccc3)N2[C@@H](c2ccc(OCCO)cc2)[C@]12C(=O)Nc1ccc(C#CCNC(N)=O)cc12                 b2
 6  CCCCC(=C=CC[C@H](O)c1ccc(OCCO)cc1)C[C@H](O)c1cc(Cl)cc(Cl)c1O                 b2
 7  CCOC(=O)C[C@H]1[C@H](OC(=O)c2ccc(-c3ccccc3)cc2)[C@@H](NC(=O)Cc2ccc(OC)cc2)c2cc(OCCCO)ccc2N1C(=O)Cc1ccc(OC)cc1                 b0
 8  CC(C)CNC(=O)[C@@]1(C)c2ccccc2C(=O)N(Cc2cc(C(F)(F)F)cc(C(F)(F)F)c2)[C@H]1c1ccc(CO)cc1                 b2
 9  CN1C(=O)C2C(C1=O)C1C=C(CCCO)C2C(C2CC2)N1Cc1cc2c(cc1Br)OCO2 (stereo not given)                 b1
10  COc1ccc(C(=O)Nc2cccc(CN3C(=O)[C@@]4(O[C@@H](CC(=O)N(CCO)Cc5ccccc5)[C@H]([Si](C)(C)c5ccc(OC)cc5)[C@H]4C)c4ccccc43)c2)cc1                 b1
11  O=C1OCCC/C=C\[C@H]2OC34C=CCN(c5ccc6ccccc6c5)C(=O)[C@H]3N(CCCO)C(=O)[C@@H]4C12 (stereo not given in full)                 b0
12  COc1cc(NN2C(C(O)c3cc(OC)c(OC)c(OC)c3)C=CC3C(=O)N(c4ccccc4)C(=O)C32)cc(OC)c1OC (stereo not given)                 b2
13  [N-]=[N+]=NCc1ccccc1C[C@]1(C(=O)N2CCOCC2)COC(c2ccc(OCCCO)cc2)=N1                 b2
14  C=C(CCCC)C(=O)CC[C@@H](OC(=O)c1cccnc1)c1ccc(OCCO)cc1                 b2

###

Listing of recorded composite z-score by entry.
Test system: Chordin-like protein 2 (CHRDL2)
Test: CHRDL2 small-molecule binders, primary screen, biochemical, small-molecule microarray, 635 nm fluorescence (AID 1126);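 also: printed compound slides probed with Chrdl2 protein at 4 µg/mL for 1 h at 4 C; score merges 667 nm emission intensity with signal to noise over three replicate slides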
Conditions: small-molecule microarray binding, fluorescence 635 nm; higher = more signal
value.type: composite z-score

compound	test.system	value.type	experimental.result
CCCC=C(CCC)[C@@H](NC(=O)CCc1ccccc1)c1ccc(C(F)(F)F)cc1	Chordin-like protein 2 (CHRDL2)	composite z-score	-0.153
[N-]=[N+]=NCc1ccccc1C[C@@]1(C(=O)N2CCCCC2)N=C(c2ccc(OCCCO)cc2)O[C@@H]1c1ccccc1CN=[N+]=[N-]	Chordin-like protein 2 (CHRDL2)	composite z-score	-1.07
CCCCCCCCCCC(O)C1C=CC2C(=O)N(C)C(=O)C2N1Nc1cc(OC)c(OC)c(OC)c1 (stereo not given)	Chordin-like protein 2 (CHRDL2)	composite z-score	-1.3
CCCCC(=C=CC[C@H](O)c1ccc(OCCO)cc1)C[C@H](O)c1cc(Cl)cc(Cl)c1O	Chordin-like protein 2 (CHRDL2)	composite z-score	0.44
Cc1nc2cc(Br)ccc2c(=O)n1Cc1cccc(O)c1	Chordin-like protein 2 (CHRDL2)	composite z-score	1.04
O=C1C2C=CC(C(O)c3ccc(I)cc3)N(Nc3ccccc3)C2C(=O)N1c1ccccc1 (stereo not given)	Chordin-like protein 2 (CHRDL2)	composite z-score	-0.409
CCOC(=O)C1=CCN(S(=O)(=O)c2ccc(C)cc2)C1c1ccccc1 (stereo not given)	Chordin-like protein 2 (CHRDL2)	composite z-score	0.132
CO[C@H]1O[C@H](CO)[C@@H](OC(=O)c2ccc(Br)cc2)[C@@H]2OC(=O)[C@H](Cc3ccccc3)C/C=C/C[C@@H](Cc3ccccc3)C(=O)O[C@@H]12	Chordin-like protein 2 (CHRDL2)	composite z-score	0.136
COc1ccc([Si](C)(C)[C@@H]2[C@@H](CC(=O)N3Cc4ccccc4C[C@H]3CO)O[C@]3(C(=O)N(c4ccccc4)c4ccccc43)[C@H]2C)cc1	Chordin-like protein 2 (CHRDL2)	composite z-score	0.943
COc1cc2c(cc1OC)CN(C(=O)[C@@H]1[C@H]3C(=O)O[C@H](c4ccccc4)[C@H](c4ccccc4)N3[C@H](c3ccc(O)cc3)[C@@]13C(=O)Nc1ccc(C#CCCO)cc13)CC2	Chordin-like protein 2 (CHRDL2)	composite z-score	0.481
O=C1C2C=CC(C(O)c3ccc4c(c3)OCO4)N(Nc3ccccc3)C2C(=O)N1c1ccccc1 (stereo not given)	Chordin-like protein 2 (CHRDL2)	composite z-score	-0.0766
CO[C@H]1O[C@H](CO)[C@@H](OC(=O)CCc2ccccc2)[C@H](OC(=O)c2cc3ccccc3[nH]2)[C@H]1OC(=O)c1cc2ccccc2[nH]1	Chordin-like protein 2 (CHRDL2)	composite z-score	0.453
Cc1ccc(N2C(=O)c3ccccc3[C@](C)(C(=O)NCc3ccccc3)[C@@H]2c2ccc(CO)cc2)nc1	Chordin-like protein 2 (CHRDL2)	composite z-score	0.408
COC(=O)[C@@]1(Cc2ccccc2)[C@H]2c3cc(C(=O)N(C)C)n(CCn4cc([N+](=O)[O-])nc4C)c3C[C@H]2CN1C(=O)c1ccccc1	Chordin-like protein 2 (CHRDL2)	composite z-score	-0.113
O=C1N(CCS(=O)(=O)c2ccccc2)Cc2ccccc2[C@@H]2OC(c3ccc(OCCCO)cc3)=N[C@]12CCS(=O)(=O)c1ccccc1	Chordin-like protein 2 (CHRDL2)	composite z-score	1.15

###

Assay: P. aeruginosa biofilm formation inhibitors, primary screen, PAO1 strain, BacTiter-Glo luminescence, LB-PBS (AID 1144)
Details: 12 h, higher = more signal
Listing of recorded z-score by entry.
value.type: z-score

compound	experimental.result
CCCCC(=C=CC[C@H](O)c1ccc(OCCO)cc1)C[C@H](O)c1cc(Cl)cc(Cl)c1O	-0.145
O=C1C[C@@](C(=O)NCc2ccccc2)(c2ccc([N+](=O)[O-])cc2)[C@@H](c2ccc(CO)cc2I)N1CC12CC3CC(CC(C3)C1)C2	-1.67
O=C1C2C=CC(C(O)C=Cc3ccc([N+](=O)[O-])cc3)N(Nc3ccccc3)C2C(=O)N1c1ccccc1 (configuration not stated)	-0.633
CN(C)CCCNC(=O)[C@@H]1c2ccccc2C(=O)N(C2CCCCC2)[C@H]1c1ccc(CO)cc1	-0.312
CC(C)(C)OC(=O)CC[C@]12N=C(c3ccc(OCCCO)cc3)O[C@H]1c1ccccc1N(Cc1ccccc1)C2=O	1.18
CC(C)C[C@@H]1NC(=O)CNC(=O)[C@@]23C(=O)N[C@@H](Cc4ccccc4)C2[C@H](C)[C@@]2(C)O[C@H]2C3/C=C/C/C=C\CNC1=O (some centres not stated)	-0.826
COCCOC(=O)N1C(=O)[C@@]2(c3ccccc31)[C@H](c1ccccc1OCCO)N1[C@H](c3ccccc3)[C@H](c3ccccc3)OC(=O)[C@H]1[C@@H]2C(=O)N1CCCCCCC1	-0.41
